Overview of recorded growth inhibition for various compounds
# procedureSummary: NCI Yeast Anticancer Drug Screen. Data for the bub3 strain (AID 167)
# conditions: S. cerevisiae bub3 mutant strain, at 11.0 µM, stronger effect = higher value
Compounds without any hit were thinned out: in the full panel of roughly 79,000, 15% have a hit.
parameterMeasured: growth inhibition (%)

compound="CC1=CC2C(C(C)C)CC1C1C(=O)OC(=O)C21 (centres undefined)" reportedresult=-9
compound=O=C(NC(=S)Nc1ccccn1)c1ccccc1 reportedresult=-13
compound=Nc1ccc(CCl)cc1Cc1c(O)ccc2ccccc12 reportedresult=0
compound=O=C(O)c1cccc2cccc(-c3c4ccc(=O)cc-4oc4cc(O)ccc34)c12 reportedresult=91
compound="CCOC(=O)C(NC(=O)CC)(N1CCN(c2cc3c(cc2F)c(=O)c(C(=O)O)cn3C2CC2)CC1)C(F)(F)F (centres undefined)" reportedresult=0
compound=c1ccc(N2N=C3N(c4ccccc4)C2N3c2ccccc2)cc1 reportedresult=29
compound=O=C(NCCCCCN1CCC2(CCCCC2)CC1)C(C1CCCCC1)C1CCCCC1 reportedresult=80
compound=COc1ccc(N=Nc2ccc3oc(=O)c(C(=O)Nc4ccccc4)cc3c2)cc1 reportedresult=71
compound=Cc1c2cc[n+](CCN3CCCCC3)cc2c(C)c2c1[nH]c1ccc(O)cc12 reportedresult=-4
compound=Nc1nc(N)c2cc(Sc3ccc4ccccc4c3)ccc2n1 reportedresult=74
compound="COc1ccc(N2C(=O)CC(Cl)C2=O)cc1 (centres undefined)" reportedresult=1
compound=Cc1nc2c(ncn2CCO)c(=O)[nH]1 reportedresult=-17
compound=COc1ccc(S(=O)(=O)N/N=C\c2cc([N+](=O)[O-])cc(I)c2O)c(OC)c1OC reportedresult=-5
compound=COc1cc(NCc2ccc3nc(N)nc(N)c3c2C)cc(OC)c1OC reportedresult=-15
compound=O=C1C=CC(=O)N1c1ccc(N2C(=O)C=CC2=O)cc1 reportedresult=100
compound=C/C=C/[P+](c1ccccc1)(c1ccccc1)c1ccccc1 reportedresult=49
compound=O=NN(CCCl)C(=O)NCCCl reportedresult=0
compound=CN(NC(=O)/C(=C/c1ccc(O)cc1)NC(=O)c1ccccc1)c1ccnc2cc(Cl)ccc12 reportedresult=16
compound=Cc1ccc(I)cc1N=C=S reportedresult=37
compound=C(=N/NC1=NCCN1)/c1c2ccccc2c(/C=N\NC2=NCCN2)c2ccccc12 reportedresult=-17
compound="CN(Cc1cnc2nc(N)nc(N)c2n1)c1ccc(C(=O)NC(CCC(=O)O)C(=O)O)c2ccccc12 (centres undefined)" reportedresult=2
compound=Clc1c(Cl)c(Cl)c2n[nH]nc2c1Cl reportedresult=-10
compound=O=c1[nH]cc(/C=N\Nc2ccccc2)c(=O)[nH]1 reportedresult=27
compound=CCCCCCSc1nc(COC(=O)NC)c(COC(=O)NC)n1C reportedresult=-4

---

# procedureSummary: NCI Yeast Anticancer Drug Screen. Data for the wt2 strain (AID 169);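 also: 0% = growth of vehicle-treated yeast cultures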
# conditions: S. cerevisiae wt2 strain growth inhibition; at 11.0 µM
About 79,000 compounds went through this panel and 15% of them were active in at least one assay; those are over-represented in the sample as a whole. The source made the active and inactive calls. Rule as the data show it: active = growth inhibition above about 70%; inactive = the rest.
Possible outcomes: 1.0 for active, 0.0 for inactive

molecule=CC(C)(C)[OH+][O-].[O-]c1ccc(Cl)cc1C=Nc1ccc(Cl)cc1[O-].[O]=[V] classlabel=0.0
molecule="CC1=CCCC2C1(C)CCC(C)C2(C)Cc1cc(O)ccc1O (configuration not stated)" classlabel=1.0
molecule="CN(C)CC1CCCc2ccccc2C1=O (configuration not stated)" classlabel=0.0
molecule="Nc1nc(F)nc2c1ncn2C1OC(COP(=O)(O)O)C(O)C1O (configuration not stated)" classlabel=0.0
molecule=Clc1nc(C(Cl)Cl)nc2sc3c(c12)CCCC3 classlabel=0.0
molecule=O=C1C=CC(=O)N1c1ccc(N2C(=O)C=CC2=O)cc1 classlabel=1.0
molecule=O=C(/C=N/O)Nc1cc(Cl)c(Cl)cc1Cl classlabel=0.0
molecule=CCOC(=O)C1=C(C)NC(C)=C(C(=O)OCC)C1c1ccccc1Cl classlabel=0.0
molecule="S=C(S)NCC1CCC(CNC(=S)S)CC1 (configuration not stated)" classlabel=0.0
molecule=BrCc1ccccc1C(c1ccccc1)c1ccccc1 classlabel=1.0
molecule=CCOC(=O)Nc1ccc2c(c1)Cc1ccccc1-2 classlabel=0.0
molecule=CC(C)(C)c1ccc(O)c(C(c2ccc([N+](=O)[O-])cc2)c2cc(C(C)(C)C)ccc2O)c1 classlabel=0.0

---

# procedureSummary: NCI Yeast Anticancer Drug Screen. Data for the wt2 strain (AID 169);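 also: 0% = growth of vehicle-treated yeast cultures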
# conditions: S. cerevisiae wt2 strain growth inhibition; at 11.0 µM; stronger effect = higher value
About 79,000 compounds went through this panel and 15% of them were active in at least one assay; those are over-represented in the sample as a whole.
parameterMeasured: growth inhibition (%)

smilesrepresentation=CC(C)c1[nH]nc(C(N)=O)c1N=NN(C)C parametermeasured="growth inhibition" unitabbreviation=% reportedresult=-2
smilesrepresentation=[N-]=[N+]=NC(c1ccccc1)(c1ccccc1)c1ccccc1 parametermeasured="growth inhibition" unitabbreviation=% reportedresult=-11
smilesrepresentation=COc1cc(/C=C/c2sc3ccccc3[n+]2C)ccc1N(C)C parametermeasured="growth inhibition" unitabbreviation=% reportedresult=-2
smilesrepresentation=c1ccc(N2N=C3N(c4ccccc4)C2N3c2ccccc2)cc1 parametermeasured="growth inhibition" unitabbreviation=% reportedresult=1
smilesrepresentation=Cc1cccc2c1N=C(C(F)(F)F)CC2=O parametermeasured="growth inhibition" unitabbreviation=% reportedresult=-1
smilesrepresentation=CCCCCCCCCCCc1nc(N)n[nH]1 parametermeasured="growth inhibition" unitabbreviation=% reportedresult=24

---

# procedureSummary: NCI Yeast Anticancer Drug Screen. Data for the mlh1 strain (AID 171);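 also: 0% = growth of vehicle-treated control cultures of the same strain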
# conditions: S. cerevisiae mlh1 strain growth inhibition; at 3.7 µM; stronger effect = higher value
# Protocol: Growth inhibition of yeast strains with defined genetic alterations is measured as a screen for potential anti-cancer activity. Selected strains with alterations in DNA damage repair or cell cycle control were exposed to compounds and growth inhibition was measured relative to vehicle treated controls. The strain used in this assay is mlh1
This is part of a sample that, as a whole, favours compounds with a hit. Of some 79,000 tested, about 15% had one in any assay. Activity calls are given as the source filed them. Rule as the data show it: active = growth inhibition above about 70%; inactive = the rest.
Overview of recorded growth inhibition for various compounds
parameterMeasured: growth inhibition

compound="CC(=O)Oc1ccc(N2C(=O)C3c4[nH]c5ccccc5c4C4CCC(C(C)(C)C)CC4C3C2=O)cc1 (stereo not given)" reportedresult="36% (inactive)"
compound=Cc1cc(O)c2c(c1)C(=O)C=C(Br)C2=O reportedresult="25% (inactive)"
compound="Nc1nc2c(c(=O)[nH]1)NC(CCNc1ccc(C(=O)O)cc1)CN2 (stereo not given)" reportedresult="-1% (inactive)"
compound=CN(C)Cc1cccc(CN(C)C)[c]1[Sn]([Br])([c]1ccccc1)[c]1ccccc1 reportedresult="23% (inactive)"
compound="CC(=O)C1=C(O)C2(C)c3c(O)c(C)c(O)c(C(C)=O)c3OC2(Sc2ccccc2)CC1=O (stereo not given)" reportedresult="23% (inactive)"

---

# procedureSummary: NCI Yeast Anticancer Drug Screen. Data for the wt2 strain (AID 169);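 also: 0% = growth of vehicle-treated yeast cultures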
# conditions: S. cerevisiae wt2 strain growth inhibition; at 33.0 µM; stronger effect = higher value
This is part of a sample that, as a whole, favours compounds with a hit. Of some 79,000 tested, about 15% had one in any assay.
Overview of recorded growth inhibition for various compounds
parameterMeasured: growth inhibition (%)

compound=ClCCn1c(CCl)nc2ccc(Cl)cc21 reportedresult=77
compound=Nc1ccc2c(c1)sc1ccccc12 reportedresult=0
compound=CCOC(=O)C1=C(C)NC(C)=C(C(=O)OCC)C1c1ccccc1Cl reportedresult=49
compound=S=c1cn[nH]c2ccc(Br)cc12 reportedresult=20
compound=Cc1ccc(N=Nc2ccc(O)c(C)c2)cc1 reportedresult=98
compound=N#CC(=C1C=CC(=NO)C=C1)c1ccccc1 reportedresult=99
compound=CCCCCCCCCCCc1nc(N)n[nH]1 reportedresult=92
compound=Clc1c(Cl)c(Cl)c2n[nH]nc2c1Cl reportedresult=-3
compound="CCC(NC(C)c1ccccc1)C(=O)c1ccc(OCc2ccccc2)c(OCc2ccccc2)c1 (configuration not stated)" reportedresult=-7
compound=N#CC(=S)Nc1cccc(Cl)c1 reportedresult=31
compound=CO[C@@]12[C@H](COC(N)=O)C3=C(C(=O)C(C)=C(N)C3=O)N1C[C@@H]1N[C@@H]12 reportedresult=51
compound=CCOC(=O)CNC(=O)c1[nH]cnc1/N=N/N(C)C reportedresult=1

---

# procedureSummary: NCI Yeast Anticancer Drug Screen. Data for the wt2 strain (AID 169);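 also: 0% = growth of vehicle-treated yeast cultures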
# conditions: S. cerevisiae wt2 strain growth inhibition; at 3.7 µM; stronger effect = higher value
# Procedure: Growth inhibition of yeast strains with defined genetic alterations is measured as a screen for potential anti-cancer activity. Selected strains with alterations in DNA damage repair or cell cycle control were exposed to compounds and growth inhibition was measured relative to vehicle treated controls. The strain used in this assay is wt2
Compounds without any hit were thinned out: in the full panel of roughly 79,000, 15% have a hit.
# if value of growth inhibition reaches -20%, tag Met; if it stays below, tag Not met

smilesrepresentation=COc1ccc(N2CN(C)CSC2=S)cc1 classlabel=Met
smilesrepresentation=Cc1ccccc1NC(=O)Cc1csc(N/N=C2\NC(=O)/C(=C/c3cccc([N+](=O)[O-])c3)S2)n1 classlabel=Met
smilesrepresentation=COc1ccc(C(C#N)=C2C=CC(=NO)C=C2)cc1 classlabel=Met
smilesrepresentation=COc1ccc(/C(C#N)=C/c2ccc(OC)c(OC)c2)cc1 classlabel="Not met"
smilesrepresentation=On1cnc(=S)c2[nH]cnc21 classlabel=Met
smilesrepresentation=CCCCC1=NNC(=O)C1 classlabel="Not met"
